- TEST METHOD NOTES: qHTS Assay for Lipid Storage Modulators in Drosophila S3 Cells;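 further: cells counted by Cell Tracker Red CMTPX staining in the red channel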
- MEASUREMENT CONTEXT: BODIPY lipid droplet fluorescence, 18-24 h, cells fed with added oleic acid; measured here: cell count max response
Hit rate of the full screen: of about 320,000 compounds, about 2,100 (0.66%) were called active. Not shown: some 53% with an inconclusive outcome. The list comes from a sample in which actives are over-represented; it also holds close analogues and randomly drawn compounds.
QUANTITY: cell number change (%)
Reply with just the number (in %).

Query block: Entry CC(=O)N1N=C(c2ccncc2)OC12CCCCCC2 : reported cell number change = ?
Result block: 5.48
